Target: Cellular tumor antigen p53 (Homo sapiens) (UniProt P04637)
Sequence (P04637 whole entry, looked up): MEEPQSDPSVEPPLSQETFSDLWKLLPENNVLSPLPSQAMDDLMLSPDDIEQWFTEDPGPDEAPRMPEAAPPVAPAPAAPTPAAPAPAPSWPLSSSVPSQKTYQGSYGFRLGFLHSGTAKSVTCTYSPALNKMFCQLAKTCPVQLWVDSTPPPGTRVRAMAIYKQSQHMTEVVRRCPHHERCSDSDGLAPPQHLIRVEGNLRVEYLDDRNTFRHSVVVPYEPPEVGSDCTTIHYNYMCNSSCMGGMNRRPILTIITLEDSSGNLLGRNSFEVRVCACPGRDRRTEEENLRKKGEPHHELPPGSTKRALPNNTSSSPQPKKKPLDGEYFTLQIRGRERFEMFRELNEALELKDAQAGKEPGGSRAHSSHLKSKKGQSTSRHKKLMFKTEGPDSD
Test: TOX21_p53_BLA_p2_ratio: Tox21 HCT-116 p53 Agonism Beta-lactamase Assay, Ratio, Phase 2 (AID 2283592)
Records with an inconclusive call do not appear. Activity calls are given as the source filed them. Rule for the calls: active = hit-call score of the fitted dose curve at least 0.9, where 1 is the maximum; inconclusive = response in the unintended direction; inactive = score below 0.9.
Labels: active, inactive

1. c1ccc2cc3ccccc3cc2c1 = inactive
2. CCc1cccc(CC)c1N = inactive
3. O=C(O)c1ccc2c(c1)nc(C(=O)NC1CCN(C3CC3)CC1)n2Cc1cc(-c2ccc(Cl)s2)on1 = inactive
4. OCc1c[nH]c2ccccc12 = active
5. CC(=O)c1ccccc1 = inactive
6. CCn1nc(C)c2c1C(=O)NCC(c1ccc(O)cc1)=N2 = inactive
7. O=C(N[C@H](CO)[C@H](O)c1ccc([N+](=O)[O-])cc1)C(Cl)Cl = inactive
8. CCc1ccc(O)c(C(C)(C)C)c1 = active
9. c1ccc(C(O[C@@H]2CCCN(CCc3ccc4c(c3)OCO4)C2)c2ccccc2)cc1 = active
10. CCOC(N)=O = inactive
11. CCCCCCCC/C=C\CCCCCCCC(=O)OC[C@@H](O)[C@H]1OC[C@H](O)[C@H]1O = inactive
12. CCCCC(CC)C(=O)OCCOCCOCCOC(=O)C(CC)CCCC (stereo not given) = inactive
13. C[C@]12C=CC(=O)C=C1CC[C@H]1[C@@H]3C[C@@H](O)[C@](O)(C(=O)CO)[C@@]3(C)C[C@H](O)[C@@]12F = inactive
14. O=C1CN(N=Cc2ccc([N+](=O)[O-])o2)C(=O)N1 = inactive
15. Cn1c(=O)c2[nH]cnc2n(C)c1=O = inactive
16. CCCCCCCCCCCCCCO = inactive
17. CC1(C)C(=O)N(Cl)C(=O)N1Cl = inactive
18. OC(Cn1cncn1)(Cn1cncn1)c1ccc(F)cc1F = inactive
19. CCCc1ccccc1 = inactive
20. O=S1(=O)CCCO1 = inactive
